system.name: GAL4-DBD/RORγ-LBD (Homo sapiens)
Sequence (P51449 269-508 limits assumed): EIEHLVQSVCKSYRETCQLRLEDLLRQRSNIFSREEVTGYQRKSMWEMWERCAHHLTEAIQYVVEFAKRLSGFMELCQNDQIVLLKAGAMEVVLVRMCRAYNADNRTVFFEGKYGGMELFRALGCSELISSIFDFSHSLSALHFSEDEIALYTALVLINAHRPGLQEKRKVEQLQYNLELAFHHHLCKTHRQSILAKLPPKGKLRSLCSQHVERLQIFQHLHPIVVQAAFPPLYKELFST
Sequence (P04386 1-147 partner limits assumed): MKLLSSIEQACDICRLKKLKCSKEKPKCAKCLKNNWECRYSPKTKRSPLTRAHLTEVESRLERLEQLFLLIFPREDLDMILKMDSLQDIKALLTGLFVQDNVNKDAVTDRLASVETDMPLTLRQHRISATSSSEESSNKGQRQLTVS
test.name: RORγt transactivation reporter assay (GAL4-DBD/RORγ-LBD, luciferase read out)
test.conditions: HEK293T cells, GAL4-UAS luciferase reporter, overnight (18-24 hours) incubation
measured.property: IC50

Here's what some known entries look like.
Param item = `O=C(O)c1ccc(-c2cc(C(=O)c3c(F)cccc3F)n3ccccc23)c(F)c1` ; retrieve measured IC50.
< 0.5 µM

And for `O=C(O)c1ccc(-c2cc(C(=O)c3c(Cl)cccc3C(F)(F)F)n3c2CCCC3)cc1` ?
< 0.5 µM

Thanks! And `COC(=O)c1ccc(-c2cc(C(=O)c3c(Cl)cccc3Cl)n3cccc(F)c23)c(F)c1` ?
< 0.5 µM

Now the compound `CC(C)(C)OC(=O)N1CCC=C(c2cc(C(=O)c3c(Cl)ccc(F)c3Cl)n3ccccc23)C1`
> 5 µM

Please give the result for `CCOC(=O)c1ccc(-c2cc(C(=O)c3c(Cl)cccc3Cl)n3cccc(F)c23)cc1` too.
< 0.5 µM

Next:
Which IC50 is reported for this compound? `O=C(O)c1ccc(-c2cc(C(=O)c3c(F)cccc3F)n3cccc(F)c23)c(F)c1`
< 0.5 µM

Here is the next compound: `COC(=O)c1ccc(-c2cc(C(=O)c3c(C)cccc3Cl)n3ccccc23)c(F)c1`
< 0.5 µM

Now try `CCS(=O)(=O)N1CC=C(c2cc(C(=O)c3c(Cl)cccc3Cl)n3ccccc23)CC1` .
> 5 µM
